# Method description: Encapsulation rate of lipid nanoparticles (Ribogreen)
# Type: physicochemical
# Experimental setup: Table 5; EGFP mRNA-loaded lipid nanoparticles; TxT/DSPC/chol/PEG-DMG=50/3/47/1.5 (mol%); total flow rate 3.0 mL/min
Each entry below carries its recorded mRNA encapsulation rate.

| Molecule | mRNA encapsulation rate [%] |
| --- | --- |
| CCCCCCC(CCCCCC)COC(=O)CCCC(=O)OCC(COC(=O)CCCC(=O)OCC(CCCCCC)CCCCCC)(COC(=O)CCCC(=O)OCC(CCCCCC)CCCCCC)NC(=O)CCN1CCCCC1 | 98.3 |
| CCCCC(CC)CN(CC(CC)CCCC)C(=O)CCCC(=O)OCC(COC(=O)CCCC(=O)N(CC(CC)CCCC)CC(CC)CCCC)(COC(=O)CCCC(=O)N(CC(CC)CCCC)CC(CC)CCCC)NC(=O)CCN1CCCCC1 (centres unmarked) [TxT-5-5A16b] | 97.9 |
| CCCCCCCN(CCCCCCC)C(=O)CCCC(=O)OCC(COC(=O)CCCC(=O)N(CCCCCCC)CCCCCCC)(COC(=O)CCCC(=O)N(CCCCCCC)CCCCCCC)NC(=O)CCN1CCCCC1 | 99.0 |
| CCCCCCCCCCN(CCCCCCCCCC)C(=O)CCC(=O)OCC(COC(=O)CCC(=O)N(CCCCCCCCCC)CCCCCCCCCC)(COC(=O)CCC(=O)N(CCCCCCCCCC)CCCCCCCCCC)NC(=O)CCN1CCCCC1 | 96.2 |
| CCCCCCC(CCCC)CNC(=O)CCCC(=O)OCC(COC(=O)CCCC(=O)NCC(CCCC)CCCCCC)(COC(=O)CCCC(=O)NCC(CCCC)CCCCCC)NC(=O)CCN1CCCCC1 (centres unmarked) | 99.1 |
